target: human mGlu4 receptor (Homo sapiens); construct: expressed in transfected cells; host or cells: monoclonal HEK-293 cell line, stably transfected; assay: Ca2+ mobilization in vitro assay on recombinant human mGlu4 expressed in HEK293 cells (PAM, L-AP4 at EC20); format: cell-based; conditions: HEK293; maximal response in % of the maximal stimulatory effect obtained with saturating concentrations of L-AP4; read-out: Eff. (%)
Sequence (Q14833 33-912): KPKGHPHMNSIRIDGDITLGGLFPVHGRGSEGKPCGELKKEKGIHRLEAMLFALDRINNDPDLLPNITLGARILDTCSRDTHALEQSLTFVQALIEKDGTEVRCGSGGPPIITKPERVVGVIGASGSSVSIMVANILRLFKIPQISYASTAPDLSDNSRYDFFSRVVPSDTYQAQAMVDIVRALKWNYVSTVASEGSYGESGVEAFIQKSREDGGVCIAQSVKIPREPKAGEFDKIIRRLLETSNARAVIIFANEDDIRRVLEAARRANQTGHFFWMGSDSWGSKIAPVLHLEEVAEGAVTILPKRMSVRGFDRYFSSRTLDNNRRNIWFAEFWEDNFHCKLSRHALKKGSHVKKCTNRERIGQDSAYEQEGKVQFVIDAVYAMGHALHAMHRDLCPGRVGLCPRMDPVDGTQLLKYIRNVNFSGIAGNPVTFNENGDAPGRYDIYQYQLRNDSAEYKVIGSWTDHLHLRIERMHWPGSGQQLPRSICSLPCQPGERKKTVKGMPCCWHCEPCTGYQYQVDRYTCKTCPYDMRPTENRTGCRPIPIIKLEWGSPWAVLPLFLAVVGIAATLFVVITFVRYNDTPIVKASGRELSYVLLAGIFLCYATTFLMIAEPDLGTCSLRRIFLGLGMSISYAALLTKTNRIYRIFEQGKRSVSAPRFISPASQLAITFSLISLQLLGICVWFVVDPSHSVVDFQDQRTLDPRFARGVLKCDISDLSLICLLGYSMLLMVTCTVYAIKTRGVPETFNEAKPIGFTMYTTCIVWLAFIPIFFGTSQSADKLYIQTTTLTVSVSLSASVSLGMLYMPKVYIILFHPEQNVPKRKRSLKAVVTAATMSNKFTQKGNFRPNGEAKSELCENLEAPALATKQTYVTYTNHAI
parameter measured: Emax (%)
Give bare numbers, in %.

Here's what some known entries look like.
CN1C(=O)N(c2c(F)cc(C#Cc3cccc(F)c3)cc2F)C(=O)C[C@@]1(C)c1cn[nH]c1 : 160
CC[C@@]1(c2cn[nH]c2)CC(=O)N(c2c(F)cc(C#Cc3cccnc3)cc2F)C(=O)N1C : 136
COCCn1ccc([C@]2(C)CC(=O)N(c3c(F)cc(C#Cc4ccccc4)cc3F)C(=O)N2C)n1 : 143
CN1C(=O)N(c2c(F)cc(C#Cc3cc(F)ccc3F)cc2F)C(=O)C[C@@]1(C)c1cnn(C)c1 : 140
CN1C(=O)N(c2c(F)cc(C#Cc3cnsc3)cc2F)C(=O)C[C@@]1(C)c1cnn(C)c1 : 149

Provide Emax for all items below, preserving their order.
1. CN1C(=O)N(c2c(F)cc(C#Cc3ccccc3F)cc2F)C(=O)C[C@@]1(C)c1cn[nH]c1
2. CN1C(=O)N(c2c(F)cc(C#Cc3cccc(F)c3)cc2F)C(=O)C[C@@]1(C)c1cnn(C)c1
3. CN1C(=O)N(c2c(F)cc(C#Cc3ccccc3)cc2F)C(=O)C[C@@]1(C)c1ccsn1
4. CN1C(=O)N(c2c(F)cc(C#Cc3ccccc3)cc2F)C(=O)C[C@@]1(C)c1cnsc1
5. CN1C(=O)N(c2c(F)cc(C#Cc3ccccc3)cc2F)C(=O)C[C@@]1(C)c1cncs1
6. CN1C(=O)N(c2c(F)cc(C#Cc3ccc(F)cc3)cc2F)C(=O)C[C@@]1(C)c1cnn(C)c1

Ans.
1. 145
2. 136
3. 152
4. 167
5. 135
6. 142

Provide Emax for all items below, preserving their order.
1. CCn1cc([C@]2(C)CC(=O)N(c3c(F)cc(C#Cc4ccccc4)cc3F)C(=O)N2C)cn1
2. CCN1C(=O)N(c2c(F)cc(C#Cc3ccccc3)cc2F)C(=O)C[C@@]1(C)c1cnn(C)c1
3. CN1C(=O)N(c2c(F)cc(C#Cc3ccccc3)cc2F)C(=O)C[C@@]1(C)c1ccn(C)n1
4. CC(C)n1cc([C@]2(C)CC(=O)N(c3c(F)cc(C#Cc4ccccc4)cc3F)C(=O)N2C)cn1

Ans.
[115, 95, 146, 139]

Qu. Provide one value: measured Emax of `CN1C(=O)N(c2c(F)cc(C#Cc3ccccc3)cc2F)C(=O)C[C@@]1(C)c1cc[nH]n1`
Ans. 134

Ref: patent US10065956B2
